target: truncated squalene synthase (tSqS) (Arabidopsis thaliana); test: biochemical
Sequence (P53799 1-388 limits assumed): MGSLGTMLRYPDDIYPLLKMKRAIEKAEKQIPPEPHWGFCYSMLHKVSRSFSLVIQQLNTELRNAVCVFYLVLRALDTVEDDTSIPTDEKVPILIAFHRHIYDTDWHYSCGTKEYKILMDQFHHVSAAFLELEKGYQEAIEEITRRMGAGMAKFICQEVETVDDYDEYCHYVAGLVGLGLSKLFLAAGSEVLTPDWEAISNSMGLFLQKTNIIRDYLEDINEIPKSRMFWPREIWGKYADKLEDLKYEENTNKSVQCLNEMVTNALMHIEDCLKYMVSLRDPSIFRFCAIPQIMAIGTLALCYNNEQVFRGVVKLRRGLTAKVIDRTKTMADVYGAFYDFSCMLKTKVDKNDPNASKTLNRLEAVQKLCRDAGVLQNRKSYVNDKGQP
pIC50: −log10 of the molar value.
Endpoint Label: pIC50

[[record]]
chemical_string = "O=C(O)CN(CCN(CC(=O)O)CC(=O)O)CC(=O)O"
endpoint_label = "pIC50"
obs_value = "~2.10"

